Each entry below carries its reported pIC50.
# Test system: H1975-1µM Osimertinib cells
# protocol: CCK-8 proliferation, osimertinib-resistant H1975 cells
# Type: cell-based, Human
# settings: Homo sapiens, NCI-H1975; CCK-8; osimertinib-resistant H1975 cells obtained by treating H1975 cells with 1 µM Osimertinib for 3 months; read-out: Inhibitory activity (IC50) on tumor cell proliferation, H1975-1µm Osimertinib
pIC50: −log10 of the molar value.

The following compounds have reported results that may help.
>>> result("CN(Cc1cccc(NC2CCC(=O)NC2=O)c1)C1CCN(c2ccc(-c3cc(F)c4c(c3)C(=O)N(C(C(=O)Nc3nccs3)c3ncn5c3CCC5)C4)cc2)CC1 (stereo not drawn)")
"6.00 to 6.30"
>>> result("O=C1CCN(c2ccc(CN3CCN(C4CCN(c5ccc(Nc6ncc7nc(Nc8ccccc8)n(C8CCCC8)c7n6)cc5)CC4)CC3)cc2)C(=O)N1")
"6.00 to 6.30"
>>> result("COc1cc(N2CCC(N(C)Cc3ccc(C4CCC(=O)NC4=O)cc3)CC2)c(C)cc1Nc1ncc(Br)c(Nc2ccc3nccnc3c2P(C)(C)=O)n1 (stereo not drawn)")
"6.00 to 6.30"
>>> result("COc1cc(N2CCN(Cc3cccc(N4CCC(=O)NC4=O)c3)CC2)c(C)cc1Nc1ncc(Br)c(Nc2ccc3nccnc3c2P(C)(C)=O)n1")
"6.30 to 7.00"
>>> result("COc1cc(N2CCC(N(C)Cc3ccc(N4CCC(=O)NC4=O)cc3)CC2)c(C)cc1Nc1ncc(Br)c(Nc2ccc3nccnc3c2P(C)(C)=O)n1")
"6.00 to 6.30"

IN: Identify pIC50 associated with the compound O=C1CCN(c2ccc(CN3CCN(C4CCN(c5ccc(-c6cc(F)c7c(c6)C(=O)N(C(C(=O)Nc6nccs6)c6ncn8c6CCC8)C7)cc5)CC4(F)F)CC3)cn2)C(=O)N1 (stereo not drawn)
OUT: 6.00 to 6.30

IN: Identify pIC50 associated with the compound O=C1CCN(c2ccc(CN3CCN(C4CCN(c5ccc(NC6=NC=C7N=C(Nc8ccccc8)N(C8CCCC8)C7N6)cc5)CC4)CC3)cn2)C(=O)N1 (stereo not drawn)
OUT: 6.00 to 6.30

###

Each entry below carries its reported inhibition at 0.5 µM.
# assayed system: human Cereblon WT GST-tagged protein (Homo sapiens)
# Construct: purchased CISBIO 64BDCRBNPEH
# protocol: CRBN binding, HTRF (CEREBLON BINDING kit)
# settings: Table II-2, CRBN binding screening, HTRF; at 0.5µM; read-out: Inhibition rate (%) at 0.5µM

IN: Identify inhibition at 0.5 µM associated with the compound CNC(=O)c1ccccc1Nc1cc(Nc2ccc(N3CCC(N(C)Cc4ccc(C5CCC(=O)NC5=O)cc4)CC3)cc2OC)ncc1C(F)(F)F (stereo not drawn)
OUT: 30 to 40%

IN: Identify inhibition at 0.5 µM associated with the compound O=C1CCN(c2cncc(CN3CCC(n4cc(NC(=O)c5cnn6ccc(N7C[C@H]8C[C@@H]7CO8)nc56)c(C(F)F)n4)CC3)c2)C(=O)N1
OUT: 40 to 53%

###

# System: H1975
# protocol: CCK-8 proliferation, NCI-H1975 (H1975)
# Format: cell-based, Human
# settings: Homo sapiens, NCI-H1975; CCK-8; 96 hours; read-out: Inhibitory activity (IC50) on tumor cell proliferation, H1975
reported metric: IC50

The following compounds have reported results that may help.
>>> result("Cc1nc2c(F)cc(-c3nc(Nc4ccc(N5CCC(N6CCN(Cc7cccc(NC8CCC(=O)NC8=O)c7)CC6)CC5)cn4)ncc3F)cc2n1C(C)C (stereo not drawn) [GT-06743]")
"100 to 500 nM"
>>> result("CN(Cc1cccc(NC2CCC(=O)NC2=O)c1)C1CCN(c2ccc(-c3cc(F)c4c(c3)C(=O)N(C(C(=O)Nc3nccs3)c3ncn5c3CCC5)C4)cc2)CC1 (stereo not drawn) [GT-05284]")
"1 to 10 nM"
>>> result("NC(=O)c1ncc(N2CCCCC2)nc1Nc1ccc(C2CCN(Cc3ccc(C4CCC(=O)NC4=O)cc3)CC2)cc1 (stereo not drawn) [GT-04785]")
"500 to 1000 nM"

IN: Jot down IC50 (H1975) of COc1cc(N2CCC(N(C)Cc3cccc(N4CCC(=O)NC4=O)c3)CC2)c(C)cc1Nc1ncc(Br)c(Nc2ccc3nccnc3c2P(C)(C)=O)n1 [GT-04214] .
OUT: 10 to 50 nM

IN: Jot down IC50 (H1975) of COc1cc(N2CCC(N3CCN(Cc4cccc(N5CCC(=O)NC5=O)c4)CC3)CC2)c(C)cc1Nc1ncc(Br)c(Nc2ccc3nccnc3c2P(C)(C)=O)n1 [GT-04260] .
OUT: 50 to 100 nM

IN: Jot down IC50 (H1975) of O=C1CCC(c2ccc(CN3CCN(c4ccc(-c5cc(F)c6c(c5)C(=O)N(C(C(=O)Nc5nccs5)c5ncn7c5CCC7)C6)cc4)CC3)cc2)C(=O)N1 (stereo not drawn) [GT-06163] .
OUT: 1 to 10 nM

###

# assayed system: human Cereblon WT GST-tagged protein (Homo sapiens, UniProt Q96SW2)
# Construct: purchased CISBIO 64BDCRBNPEH
# Sequence (Q96SW2 whole entry): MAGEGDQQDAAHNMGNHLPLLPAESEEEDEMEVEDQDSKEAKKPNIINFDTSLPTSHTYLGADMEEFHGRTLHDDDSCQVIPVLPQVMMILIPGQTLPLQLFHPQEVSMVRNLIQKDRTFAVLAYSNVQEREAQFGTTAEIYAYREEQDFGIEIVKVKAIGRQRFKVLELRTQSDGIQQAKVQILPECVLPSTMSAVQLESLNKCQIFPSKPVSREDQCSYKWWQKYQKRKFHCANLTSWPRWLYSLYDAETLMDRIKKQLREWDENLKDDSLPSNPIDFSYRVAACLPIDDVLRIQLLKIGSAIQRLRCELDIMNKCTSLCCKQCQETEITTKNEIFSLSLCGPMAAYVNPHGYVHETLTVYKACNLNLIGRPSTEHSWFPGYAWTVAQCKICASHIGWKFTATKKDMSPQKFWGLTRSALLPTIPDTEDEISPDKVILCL
# protocol: CRBN binding, HTRF (CEREBLON BINDING kit)
# settings: Table II-2, CRBN binding screening, HTRF; at 2 µM; read-out: Inhibition rate (%) at 2 µM
reported metric: inhibition at 2 µM

>>> result("COc1cc2nn(C3CCN(Cc4ccc(C5CCC(=O)NC5=O)cn4)CC3)cc2cc1NC(=O)c1cccc(C(F)(F)F)n1 (stereo not shown) [GT-07534]")
"53 to 60%"

IN: Identify inhibition at 2 µM associated with the molecule CN(c1nccnc1CNc1nc(Nc2ccc(N3CCN(Cc4cc(C5CCC(=O)NC5=O)cnc4F)CC3)cc2)ncc1C(F)(F)F)S(C)(=O)=O (stereo not shown) [GT-07397]
OUT: 60 to 80%

IN: Identify inhibition at 2 µM associated with the molecule CN(c1nccnc1CNc1nc(Nc2ccc(N3CCN(Cc4ccc(N5CCC(=O)NC5=O)cn4)CC3)cc2)ncc1C(F)(F)F)S(C)(=O)=O [GT-07403]
OUT: 60 to 80%

IN: Identify inhibition at 2 µM associated with the molecule CNC(=O)c1ccccc1Nc1cc(Nc2cc(C)c(N3CCN(Cc4ccc(C5CCC(=O)NC5=O)cc4)CC3)cc2OC(C)C)ncc1C(F)(F)F (stereo not shown) [GT-03946]
OUT: 53 to 60%

IN: Identify inhibition at 2 µM associated with the molecule CC(=O)c1c(C)c2cnc(Nc3ccc(N4CCN(Cc5cc(C6CCC(=O)NC6=O)cnc5F)CC4)cn3)nc2n(C2CCCC2)c1=O (stereo not shown) [GT-07591]
OUT: 80 to 100%

IN: Identify inhibition at 2 µM associated with the molecule C[C@@H]1CNC(=O)c2cc3ccc(C(=O)Nc4cnn(Cc5ccc(NCc6cncc(N7CCC(=O)NC7=O)c6)cc5)c4)nc3n21 [GT-07796]
OUT: 80 to 100%

IN: Identify inhibition at 2 µM associated with the molecule CN(Cc1cc(N2CCC(=O)NC2=O)cnc1F)C1CCN(c2ccc(-c3cc(F)c4c(c3)C(=O)N(C(C(=O)Nc3nccs3)c3ncn5c3CCC5)C4)cc2)CC1 (stereo not shown) [GT-07823]
OUT: 80 to 100%

###

# assayed system: human Cereblon WT GST-tagged protein (Homo sapiens, UniProt Q96SW2)
# Construct: purchased CISBIO 64BDCRBNPEH
# protocol: CRBN binding, HTRF (CEREBLON BINDING kit)
# settings: Table II-2, CRBN binding screening, HTRF; at 2 µM; read-out: Inhibition rate (%) at 2 µM
reported metric: inhibition at 2 µM

The following molecules have reported results that may help.
>>> result("CN(C)C(=O)c1cc2cnc(Nc3ccc(N4CCN(Cc5cc(N6CCC(=O)NC6=O)cnc5F)CC4)cn3)nc2n1C1CCCC1 [GT-07830]")
"60 to 80%"
>>> result("CC(C)(O)c1cc2nc(C3CCN(Cc4ccc(C5CCC(=O)NC5=O)cn4)CC3)oc2cc1NC(=O)c1cccc(C(F)(F)F)n1 (stereo not drawn) [GT-07763]")
"60 to 80%"

IN: Identify inhibition at 2 µM associated with the molecule COc1cc(N2CCN(Cc3ccc(C4CCC(=O)NC4=O)cc3)CC2)ccc1Nc1ncc(Cl)c(Nc2ccccc2P(C)(C)=O)n1 (stereo not drawn) [GT-03781]
OUT: 60 to 80%

IN: Identify inhibition at 2 µM associated with the molecule COc1cc(N2CCC(N(C)Cc3ccc(C4CCC(=O)NC4=O)cc3)CC2)ccc1Nc1ncc(Cl)c(Nc2ccccc2P(C)(C)=O)n1 (stereo not drawn) [GT-03603]
OUT: 53 to 60%

IN: Identify inhibition at 2 µM associated with the molecule O=C1CCN(c2cnc(F)c(CN3C[C@H]4C[C@@H]3CN4c3ccc(-c4cc(F)c5c(c4)C(=O)N(C(C(=O)Nc4nccs4)c4ncn6c4CCC6)C5)cc3)c2)C(=O)N1 (stereo partly drawn) [GT-07825]
OUT: 80 to 100%

IN: Identify inhibition at 2 µM associated with the molecule CC(C)(O)c1cc2nn(C3CCN(Cc4cc(C5CCC(=O)NC5=O)cnc4F)CC3)cc2cc1NC(=O)c1cccc(C(F)(F)F)n1 (stereo not drawn) [GT-07793]
OUT: 80 to 100%
